- ASSAY_OVERVIEW: Selectivity index, ratio of CC50 for human GES1 cells to IC50 for human A549 cells
- Assay type: toxicity
- CONDITION_SET: GES1 cells (CC50) versus A549 cells (IC50)
Can you tell me selectivity ratio for the items I'm about to list?
Reply briefly: the number, and no unit.

Field request: selectivity ratio | item: O=C(NNC(=O)c1ccccc1NS(=O)(=O)c1cnc(O)nc1O)c1cccc(Cl)c1
14.2

I have this compound here, Nc1nc2[nH]cc(CCc3ccc(C(=O)N[C@@H](CCC(=O)O)C(=O)O)cc3)c2c(=O)[nH]1 , and I need its recorded selectivity ratio.
3.22

---

- ASSAY_OVERVIEW: Selectivity index, ratio of CC50 for human IOSE80 cells to IC50 for human A549 cells
- Format: toxicity
- CONDITION_SET: IOSE80 cells (CC50) versus A549 cells (IC50)
OBSERVABLE: selectivity ratio

Item Nc1nc2[nH]cc(CCc3ccc(C(=O)N[C@@H](CCC(=O)O)C(=O)O)cc3)c2c(=O)[nH]1 [PEMETREXED] has what recorded selectivity ratio?
3.59

// selectivity ratio lookup, key: O=C(NNC(=O)c1ccccc1NS(=O)(=O)c1cnc(O)nc1O)c1cccc(Cl)c1
11.3
